tgt: RAF proto-oncogene serine/threonine-protein kinase (Homo sapiens, UniProt P04049)
Sequence (P04049 whole entry): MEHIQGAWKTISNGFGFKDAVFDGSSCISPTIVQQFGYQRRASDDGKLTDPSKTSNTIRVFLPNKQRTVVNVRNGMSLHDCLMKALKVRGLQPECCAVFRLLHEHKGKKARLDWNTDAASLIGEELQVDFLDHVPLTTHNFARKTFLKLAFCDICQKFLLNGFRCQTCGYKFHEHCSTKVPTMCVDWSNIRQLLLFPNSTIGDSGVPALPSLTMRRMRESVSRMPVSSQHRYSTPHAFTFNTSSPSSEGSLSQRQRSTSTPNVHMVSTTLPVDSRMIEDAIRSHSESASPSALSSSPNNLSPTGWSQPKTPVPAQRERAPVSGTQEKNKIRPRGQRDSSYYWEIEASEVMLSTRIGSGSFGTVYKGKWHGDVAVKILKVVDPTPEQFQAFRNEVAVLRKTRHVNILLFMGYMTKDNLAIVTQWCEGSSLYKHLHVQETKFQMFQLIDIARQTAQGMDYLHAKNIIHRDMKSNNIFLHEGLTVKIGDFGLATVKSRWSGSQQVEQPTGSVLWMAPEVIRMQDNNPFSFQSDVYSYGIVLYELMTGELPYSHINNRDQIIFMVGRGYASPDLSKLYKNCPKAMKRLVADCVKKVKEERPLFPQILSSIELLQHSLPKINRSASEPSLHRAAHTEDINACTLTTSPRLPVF
readout: Ki
Please answer using a numeric value trailed by its unit.

What value of Ki has been recorded for this entry: `Cc1ccc2c(Nc3ccc(Cl)cc3)nccc2c1Nc1ncccc1-c1ncnc2[nH]cnc12`
0.3 nM

----------
Tested on: A-375
protocol-details: cells
protocol-conditions: Homo sapiens
readout: pIC50
Scale: pIC50 equals -log10([C]), with [C] in mol/L.

Consider the molecule shown here: `CN(C)CCOc1ccc(-c2nc(-c3ccncc3)c(-c3ccc4c(c3)CC/C4=N\O)[nH]2)cc1` What is its recorded pIC50?
6.43

Lookup `CCCS(=O)(=O)Nc1ccc(F)c(C(=O)c2c[nH]c3ncc(Cl)cc23)c1F`
6.30

Param item: `Cc1ccc2c(Nc3ccc(Cl)cc3)nccc2c1Nc1ncccc1-c1ncnc2[nH]cnc12`
6.51

Follow-up item: `CNC(=O)c1cc(Oc2ccc(NC(=O)Nc3ccc(Cl)c(C(F)(F)F)c3)cc2)ccn1`
5.62
